# cytotoxicity at 70.5 h values compiled below
Assay: Human HepG2 cell viability assay in 384 well format
Assay type: toxicity, cell-based
Parameters: dose 125 nL, time 70.5 hour; concentration not given beside the values
Details: HepG2 cells, read-out: Inhibition
Your answer is read as %, so omit the unit and give the number.

Solved entries (count: 5):
Which value of cytotoxicity at 70.5 h has been reported for Cc1nonc1C1CCCN1Cc1ccc(C(=O)Nc2nccs2)cc1 (stereo unspecified) in the records?
9.65

Now the molecule CCOc1ccccc1C(=O)N1CCCC1c1ncc2c(n1)CCNC2 (stereo unspecified)
22.9

Lookup `Cc1csc(CNC(=O)Nc2cc(C(F)(F)F)c[nH]c2=O)n1`
-5.01

Record: `O=S(=O)(Nc1ccc(Oc2ccc3c(c2)OCO3)cc1)N1CCCCC1`
23

// same read-out, input: `Cc1cnn(CCNCCCOc2ccc3c(c2)OCO3)c1`
-0.972

Further cases:
Request the reported cytotoxicity at 70.5 h associated with `CC1(C)COCCN1C(=O)CCc1nc(-c2ccc(Cl)cc2)no1`
-20

Follow-up item: `Cn1nc(CO)c2c1CCN(c1ncnc3c1CCNCC3)C2`
-6.13

Consider next the molecule `Cn1c2ccccc2c2ncn(CCCN3CCOCC3)c(=O)c21` in the same way.
12.2

* * *

Assay: Human HepG2 cell viability assay in 384 well format
Assay type: toxicity, cell-based
Parameters: dose 125 nL, time 70.5 hour; concentration not given beside the values
Details: HepG2 cells, read-out: Inhibition
# reported cytotoxicity at 70.5 h; entries follow
Give just the number in %; leave the unit off.

Study these solved cases before continuing.
cytotoxicity at 70.5 h for `CN(C)Cc1ccnc(NS(=O)(=O)Cc2cccc(F)c2)c1` ?
1.98

Entry to check: CCc1nccn1C1CCCN(C(=O)Cc2n[nH]c3ccccc23)C1 (stereo unspecified)
-1.24

Would you mind doing c1cnnc(NCC2CN(CCN3CCCCC3)CCO2)c1 (stereo unspecified) as well?
-11.2

For `CCNC(=O)NCc1ccnc(N(C)C)n1` then?
-5.28

Next compound up: `COc1ccc(OC)c(-c2nc(CN(C)Cc3noc(C)n3)c(C)o2)c1`
-21.2

With those in mind, consider the next compound.
Requested field: cytotoxicity at 70.5 h. Item: CCN(C(C)=O)c1nc(CN2CCCC2Cn2cncn2)cs1 (stereo unspecified)
17.8

* * *

Assay: Human HepG2 cell viability assay in 384 well format
Format: toxicity, cell-based
Parameters: dose 125 nL, time 70.5 hour; concentration not given beside the values
Conditions: HepG2 cells, read-out: Inhibition
Form field: cytotoxicity at 70.5 h (one value per entry).
Your answer should be a plain number; it is taken to be in %.

Examples with their reported cytotoxicity at 70.5 h follow.
Data request, read-out cytotoxicity at 70.5 h, for CNS(=O)(=O)c1ccc(CN2CCCC2c2ccc(F)cc2)cc1 (configuration not stated)
-5.9

Same lookup for `CCn1c(=O)nc2n1C(=O)N(c1cccc(Cl)c1)C2` , please.
-1.37

Similarly, `CC1(C)CN(CC(F)(F)F)CCN1CC(=O)NC1CC1` ?
-6.02

Could you do the same for `CCOCC(=O)N1C[C@H]2CCC[C@@]2(COC)C1` , please?
-7.78

Now try `Cc1nccc(NCc2cncc3c2CCN(S(C)(=O)=O)C3)n1` .
1.9

Continuing:
# query: cytotoxicity at 70.5 h of entry `Cc1cc2c(N)nc(=O)n(CC(=O)Nc3cccc(Cl)c3)c2s1`
-13.3

Next compound: `CC(C)N1CCC(c2nccnc2Nc2ncccn2)CC1`
-4.91

Again, but for `CN1CCc2c1nc1c(c2N)CCC1`
-7.38

* * *

Assay: Human HepG2 cell viability assay in 384 well format
Format: toxicity, cell-based
Parameters: dose 125 nL, time 70.5 hour; concentration not given beside the values
Conditions: HepG2 cells, read-out: Inhibition
quantity name: cytotoxicity at 70.5 h (%)
// units = %; emit number, no label

Some solved cases for reference:
// lookup cytotoxicity at 70.5 h for `COC(=O)CSc1nnc2[nH]c(=O)c3c(n12)CCCC3`
-13.8

Repeat for the following molecule: `Oc1cccc(CN2C[C@H]3CC[C@@H]2CN(Cc2cccnc2)C3)c1`
3.01

Another molecule: COc1ncc(CN2CCCC(c3[nH]ncc3S(C)(=O)=O)C2)cn1 (stereo not drawn)
-7.31

Field entry: O=C(NCCCn1ccnn1)C1CCCN(C2CCCC2)C1 (stereo not drawn)
-1.79

Repeat with `COc1cccc([C@H]2CN(C(=O)c3noc4c3CCCC4)C[C@@H]2N)c1`
-3.29

Would you kindly repeat that for `CN1CCC(n2nc(Cc3cccc(Cl)c3)nc2Cn2ccnc2)CC1` ?
-8.49

Continuing:
Which cytotoxicity at 70.5 h reading was recorded for the molecule Cc1noc(C)c1C(=O)NCC(C)N(C)C (stereo not drawn) ?
4.18

Another molecule to look at: Cn1cc(CN(C(=O)C2COc3ccccc3C2)C2CC2)cn1 (stereo not drawn)
-9.16

Check `O=C1CCNc2ncc(-c3ccccc3Cl)cc2CN1C1CC1` too.
0.196

Note, next up: `NCc1ccccc1Sc1ccc(O)cc1`
-8.8

Also `CNC(=O)c1cccc(CCNC(=O)N2CCc3ccccc3C2)c1` ?
-1.68

Would you kindly repeat that for COc1ccc(C2CC(=O)Nc3nc(N4CCOCC4)sc32)cc1 (stereo not drawn) ?
-6.38

And for `Cc1noc(C)c1CN1CCc2nn(C(C)C)c(=O)cc2C1` ?
38.6

Next record, please: Cc1nn(C)c(C)c1NC(=O)CN1CCCC1c1noc(C(C)C)n1 (stereo not drawn)
-5

Same read-out for CC(Cc1cccc(F)c1)C(=O)NS(=O)(=O)c1ccc2c(c1)OCCO2 (stereo not drawn) ?
19.6

Repeat for the following molecule: `O=C1COC2(CCN(C(=O)c3ccco3)CC2)CN1Cc1ccccn1`
-1.65

* * *

Assay: Human HepG2 cell viability assay in 384 well format
Type: toxicity, cell-based
Parameters: dose 125 nL, time 70.5 hour; concentration not given beside the values
Settings: HepG2 cells, read-out: Inhibition
cytotoxicity at 70.5 h for assorted compounds
Quick note: give the figure in %, leave out the unit.

What does the record list as cytotoxicity at 70.5 h for CC(C)CCN1CC2(CCCN(C(=O)CNC(=O)N(C)C)C2)CCC1=O (stereo unspecified) ?
-10.1

Repeat for the following compound: Cc1cccc(CN2CCC3(CCCN(Cc4cnn(C)c4)C3)C2)n1 (stereo unspecified)
-14

Next compound up: CN(C)c1cncc(C2CCCN(c3cnccn3)C2)n1 (stereo unspecified)
-6.42

Follow-up item: `CNC(=O)C(C)(C)N1CCC[C@H]1C(=O)NCCN(C)C`
-16.8

Try `CN(C)S(=O)(=O)c1ccc(-c2nc(C#N)c(NC(C)(C)C)o2)o1` next.
-8.34

Next compound, cytotoxicity at 70.5 h to be filled in.
Dear colleague, I am looking for the recorded cytotoxicity at 70.5 h of the following compound: `O=S(=O)(Nc1cnc(N2CCCC2)nc1)c1ccc(OC(F)(F)F)cc1`
-4.76

* * *

Experiment: Human HepG2 cell viability assay in 384 well format
Format: toxicity, cell-based
Set-up: dose 125 nL, time 70.5 hour; concentration not given beside the values
Settings: HepG2 cells, read-out: Inhibition
quantity name: cytotoxicity at 70.5 h (%)
The response must be a number in % with no trailing unit.

Here is how some compounds turned out for cytotoxicity at 70.5 h.
For the compound shown here, `C[C@@H]1C[C@@H]2CCN(C(=O)c3ccncn3)C[C@H]2O1` , give the reported cytotoxicity at 70.5 h.
-7.65

Please give the result for `CC(C)[C@@H]1CN(S(=O)(=O)c2cccc(C(=O)O)c2)C[C@H]1N(C)C` too.
17.4

Kindly review the next compound as well.
Would you kindly share the measured cytotoxicity at 70.5 h for COCCN1CCCC1c1nccnc1Nc1nc(C)cs1 (configuration not stated) ?
-21.9

* * *

# cytotoxicity at 70.5 h listing for each entry below
Test: Human HepG2 cell viability assay in 384 well format
Format: toxicity, cell-based
Set-up: dose 125 nL, time 70.5 hour; concentration not given beside the values
Conditions: HepG2 cells, read-out: Inhibition
Reply numerically in %, unit not repeated.

Worked cases, cytotoxicity at 70.5 h given:
Report cytotoxicity at 70.5 h for `CCCN(CCC)S(=O)(=O)NCCc1cc(C)ccc1OC` please.
-8.2

Ok, now O=C1OC2(CCN(CC3CCCO3)CC2)CN1CCc1ccccc1 (stereo unspecified)
2.25

***
cytotoxicity at 70.5 h for `COCC(=O)N1CCC2(CCN(Cc3cccnc3)C2)CC1` ?
-7.11

How about CCN1CCC(CC(=O)N2CCN(c3ccccc3OC)CC2C)CC1 (stereo unspecified) ?
23.7

Moving on to the next molecule: `Cc1cccc(C(=O)NCc2ccnc(N(C)C)c2)n1`
0.0987

Check O=C(c1cccs1)N1CC(C(=O)N2CCCC2)C2(CCOCC2)C1 (stereo unspecified) too.
0.22

* * *

Assay: Human HepG2 cell viability assay in 384 well format
Type: toxicity, cell-based
Set-up: dose 125 nL, time 70.5 hour; concentration not given beside the values
Details: HepG2 cells, read-out: Inhibition
quantity name: cytotoxicity at 70.5 h (%)
The figure you give is taken to be in %; do not add the unit.

Below, 5 compounds whose answers are already recorded.
# input compound: `Cn1nccc1-c1ncc2c(c1C(=O)O)CCN(Cc1ccccc1)C2` ; wanted: its cytotoxicity at 70.5 h
11.6

Moving on to the next compound: `CC1CCN(CCNC(=O)c2ccn(-c3ccccc3)n2)CC1`
-6.14

Item: Cn1c(SCc2noc(C(C)(C)C)n2)nnc1C1CCS(=O)(=O)C1 (stereo unspecified)
-7.06

Subsequent entry: CSCC(CCO)Nc1cccc(C(F)(F)F)n1 (stereo unspecified)
-1.51

Then this compound: `CCc1nnsc1C(=O)N(C)Cc1ccc(Br)o1`
-2.39

Shift focus to the following entry.
For the compound `COCCc1noc(-c2cn(Cc3ccccc3C)nn2)n1` , what cytotoxicity at 70.5 h is on record?
-4.41
